Reference source: paper PMC12834051

- ASSAY PROCEDURE: Octanol/buffer distribution coefficient (logD)
- Format: physicochemical
- SETUP CONDITIONS: pH 7.4, pH 7.40, octanol/67 mM sodium phosphate, 25 °C
MEASURE NAME: logD at 24 h

[[record]]
compound = "COc1cc(CCNCc2ccccc2O)c(OC)cc1C#N [Compound 1, 25CN-NBOH]"
reported_measurement = 1.59


====

- ASSAY PROCEDURE: Octanol/buffer distribution coefficient (logD)
- Format: physicochemical
- SETUP CONDITIONS: pH 9.5, pH 9.50, octanol/50 mM sodium carbonate, 25 °C
MEASURE NAME: logD at 24 h

[[record]]
compound = "COc1cc(CCNCc2ccccc2O)c(OC)cc1C#N [Compound 1, 25CN-NBOH]"
reported_measurement = 2.58

